The values you see were collected from patent US5854204A.

Peptide text beside a SMILES is read from it. * marks the point of attachment. Cholyl = C[C@H](CCC(=O)*)[C@H]1CC[C@H]2[C@@H]3[C@H](O)C[C@@H]4C[C@H](O)CC[C@]4(C)[C@H]3C[C@H](O)[C@]12C
Recorded below: % Inhibition of Plateau, system Aβ1-40 (Homo sapiens, UniProt P05067).
Dear colleague, please return just the value in %, with no unit written.

Compound	System name	Scale unit	Readout value
CC(C)C[C@H](NC(=O)[C@H](CCCCN)NC(=O)[C@H](CCC(N)=O)NC(=O)[C@H](Cc1c[nH]cn1)NC(=O)CC[C@@H](C)[C@H]1CC[C@H]2[C@@H]3[C@H](O)C[C@@H]4C[C@H](O)CC[C@]4(C)[C@H]3C[C@H](O)[C@]12C)C(=O)N[C@H](C(=O)N[C@@H](Cc1ccccc1)C(=O)N[C@@H](Cc1ccccc1)C(=O)O)C(C)C [PPI-348] (Cholyl-HQKLVFF-OH)	Aβ1-40 (Homo sapiens, UniProt P05067)	%	49

GET /values?readout=% Inhibition of Plateau&item= CC(C)[C@H](NC(=O)[C@H](CCC(=O)O)NC(=O)[C@H](Cc1ccc(O)cc1)NC(=O)CNC(=O)[C@H](CO)NC(=O)[C@H](CC(=O)O)NC(=O)[C@H](Cc1c[nH]cn1)NC(=O)CC[C@@H](C)[C@H]1CC[C@H]2[C@@H]3[C@H](O)C[C@@H]4C[C@H](O)CC[C@]4(C)[C@H]3C[C@H](O)[C@]12C)C(=O)N[C@@H](Cc1c[nH]cn1)C(=O)N[C@@H](Cc1c[nH]cn1)C(N)=O [PPI-331] (Cholyl-HDSGYEVHH-NH2)
29

----------
Some molecules, each annotated with its measured % Iext'n (percent reduction of thioflavin-T fluorescence).
# System name: Aβ1-40 (Homo sapiens)
# Assay remarks: Seeded extension assay (thioflavin T fluorescence)
# Type: biochemical
# Set-up: Natural β-AP (β-AP1-40) was obtained commercially from Bachem (Torrance, Calif.); purchased Bachem (Torrance, Calif.)
# Condition context: Table V; 25 mole % inhibitor
Peptide text beside a SMILES is read from it. * marks the point of attachment. Cholyl = C[C@H](CCC(=O)*)[C@H]1CC[C@H]2[C@@H]3[C@H](O)C[C@@H]4C[C@H](O)CC[C@]4(C)[C@H]3C[C@H](O)[C@]12C
Dear colleague, please return just the value in %, with no unit written.

Worked cases, % Iext'n (percent reduction of thioflavin-T fluorescence) given:
Molecule	Scale unit	Readout value
CC(C)C[C@H](NC(=O)[C@@H](NC(=O)[C@H](Cc1ccccc1)NC(=O)[C@H](Cc1ccccc1)NC(=O)CC[C@@H](C)[C@H]1CC[C@H]2[C@@H]3[C@H](O)C[C@@H]4C[C@H](O)CC[C@]4(C)[C@H]3C[C@H](O)[C@]12C)C(C)C)C(=O)O [PPI-430] (Cholyl-FFVL-OH)	%	75
CC(C)[C@H](NC(=O)[C@H](Cc1ccccc1)NC(=O)[C@H](Cc1ccccc1)NC(=O)CC[C@@H](C)[C@H]1CC[C@H]2[C@@H]3[C@H](O)C[C@@H]4C[C@H](O)CC[C@]4(C)[C@H]3C[C@H](O)[C@]12C)C(=O)O	%	7

Consider the record given below.
GET /values?readout=% Iext'n (percent reduction of thioflavin-T fluorescence)&item= CC(C)C[C@H](NC(=O)CC[C@@H](C)[C@H]1CC[C@H]2[C@@H]3[C@H](O)C[C@@H]4C[C@H](O)CC[C@]4(C)[C@H]3C[C@H](O)[C@]12C)C(=O)N[C@H](C(=O)N[C@@H](Cc1ccccc1)C(=O)N[C@@H](Cc1ccccc1)C(=O)O)C(C)C
51

----------
# System name: Aβ1-40 (Homo sapiens, UniProt P05067)
# Sequence (P05067 672-711): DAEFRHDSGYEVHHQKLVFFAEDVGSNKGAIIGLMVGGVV
# Assay remarks: Seeded extension assay (thioflavin T fluorescence)
# Type: biochemical
# Design: Natural β-AP (β-AP1-40) was obtained commercially from Bachem (Torrance, Calif.); purchased Bachem (Torrance, Calif.)
# Condition context: Table V; 25 mole % inhibitor
Peptide text beside a SMILES is read from it. * marks the point of attachment. Cholyl = C[C@H](CCC(=O)*)[C@H]1CC[C@H]2[C@@H]3[C@H](O)C[C@@H]4C[C@H](O)CC[C@]4(C)[C@H]3C[C@H](O)[C@]12C
Recorded endpoint: % Iext'n (percent reduction of thioflavin-T fluorescence) (%)
Dear colleague, please return just the value in %, with no unit written.

Worked cases, % Iext'n (percent reduction of thioflavin-T fluorescence) given:
Molecule	Readout value
CC(C)[C@H](NC(=O)CC[C@@H](C)[C@H]1CC[C@H]2[C@@H]3[C@H](O)C[C@@H]4C[C@H](O)CC[C@]4(C)[C@H]3C[C@H](O)[C@]12C)C(=O)N[C@@H](Cc1ccccc1)C(=O)N[C@@H](Cc1ccccc1)C(=O)N[C@@H](C)C(=O)O [PPI-392] (Cholyl-VFFA-OH)	10
CC(C)C[C@H](NC(=O)[C@H](CCCCN)NC(=O)CC[C@@H](C)[C@H]1CC[C@H]2[C@@H]3[C@H](O)C[C@@H]4C[C@H](O)CC[C@]4(C)[C@H]3C[C@H](O)[C@]12C)C(=O)N[C@H](C(=O)N[C@@H](Cc1ccccc1)C(=O)N[C@@H](Cc1ccccc1)C(=O)O)C(C)C [PPI-350, cholyl-Aβ16-20]	11
CC(C)C[C@H](NC(=O)CC[C@@H](C)[C@H]1CC[C@H]2[C@@H]3[C@H](O)C[C@@H]4C[C@H](O)CC[C@]4(C)[C@H]3C[C@H](O)[C@]12C)C(=O)N[C@H](C(=O)N[C@@H](C)C(=O)N[C@@H](Cc1ccccc1)C(=O)N[C@@H](C)C(=O)O)C(C)C [PPI-390] (Cholyl-LVAFA-OH)	0
CC(C)C[C@H](NC(=O)CC[C@@H](C)[C@H]1CC[C@H]2[C@@H]3[C@H](O)C[C@@H]4C[C@H](O)CC[C@]4(C)[C@H]3C[C@H](O)[C@]12C)C(=O)N[C@H](C(=O)N[C@@H](Cc1ccccc1)C(=O)N[C@@H](Cc1ccccc1)C(=O)N[C@@H](CCCCN)C(=O)O)C(C)C [PPI-407] (Cholyl-LVFFK-OH)	85
CC(C)C[C@H](NC(=O)[C@H](CCCCN)NC(=O)CC[C@@H](C)[C@H]1CC[C@H]2[C@@H]3[C@H](O)C[C@@H]4C[C@H](O)CC[C@]4(C)[C@H]3C[C@H](O)[C@]12C)C(=O)N[C@H](C(=O)N[C@@H](C)C(=O)N[C@@H](Cc1ccccc1)C(=O)O)C(C)C [PPI-370, cholyl-Aβ16-20 Phe19- >Ala] (Cholyl-KLVAF-OH)	31

GET /values?readout=% Iext'n (percent reduction of thioflavin-T fluorescence)&item= CC(C)C[C@H](NC(=O)[C@@H](NC(=O)[C@H](Cc1ccccc1)NC(=O)[C@H](Cc1ccccc1)NC(=O)CC[C@@H](C)[C@H]1CC[C@H]2[C@@H]3[C@H](O)C[C@@H]4C[C@H](O)CC[C@]4(C)[C@H]3C[C@H](O)[C@]12C)C(C)C)C(=O)N[C@@H](C)C(=O)O [PPI-426] (Cholyl-FFVLA-OH)
89

GET /values?readout=% Iext'n (percent reduction of thioflavin-T fluorescence)&item= CC(C)C[C@H](NC(=O)[C@@H](N)CCCCN)C(=O)N[C@H](C(=O)N[C@@H](Cc1ccccc1)C(=O)N[C@@H](Cc1ccccc1)C(=O)O)C(C)C [PPI-377, Aβ16-20]
8

----------
# System name: Aβ1-40 (Homo sapiens, UniProt P05067)
# Assay remarks: biochemical
# Condition context: read-out: % Inucl'n (percent reduction in maximum turbidity)
Numbered stars: 1 amine (or outer) side, 2 acyl side, 3 side chain; on linkers, the order of the positions; unused ones are H or OH. Square brackets hold non-standard residues; d marks the D form. Peptide text beside a SMILES is read from it. * marks the point of attachment. Cholyl = C[C@H](CCC(=O)*)[C@H]1CC[C@H]2[C@@H]3[C@H](O)C[C@@H]4C[C@H](O)CC[C@]4(C)[C@H]3C[C@H](O)[C@]12C; X2 = O=C(C1(O)C[C@H](O)[C@@H](N[*:1])[C@H]([C@H](O)[C@H](O)CO)O1)[*:2]; Tyr(3-I) = N[C@@H](Cc1ccc(O)c(I)c1)C(=O)O
Recorded endpoint: inhibition at 100 % (%)
Dear colleague, please return just the value in %, with no unit written.

Worked cases, inhibition at 100 % given:
Compound	Scale unit	inhibition at 100 %
CC(=O)N[C@H]1[C@H]([C@H](O)[C@H](O)CO)OC(O)(C(=O)N[C@@H](Cc2c[nH]cn2)C(=O)N[C@@H](CCC(N)=O)C(=O)N[C@@H](CCCCN)C(=O)N[C@@H](CC(C)C)C(=O)N[C@H](C(=O)N[C@@H](Cc2ccccc2)C(=O)N[C@@H](Cc2ccccc2)C(N)=O)C(C)C)C[C@@H]1O (stereo partly shown) [PPI-316] (Ac-[X2]HQKLVFF-NH2)	%	-15
CC(C)C[C@H](NC(=O)CC[C@@H](C)[C@H]1CC[C@H]2[C@@H]3[C@H](O)C[C@@H]4C[C@H](O)CC[C@]4(C)[C@H]3C[C@H](O)[C@]12C)C(=O)N[C@H](C(=O)N[C@@H](C)C(=O)N[C@@H](Cc1ccccc1)C(=O)N[C@@H](C)C(=O)O)C(C)C [PPI-390] (Cholyl-LVAFA-OH)	%	25
CC(C)C[C@H](NC(=O)CC[C@@H](C)[C@H]1CC[C@H]2[C@@H]3[C@H](O)C[C@@H]4C[C@H](O)CC[C@]4(C)[C@H]3C[C@H](O)[C@]12C)C(=O)N[C@H](C(=O)N[C@@H](Cc1ccccc1)C(=O)N[C@@H](Cc1ccc(O)c(I)c1)C(=O)N[C@@H](C)C(=O)O)C(C)C [PPI-397] (Cholyl-LVF[Tyr(3-I)]A-OH)	%	95

GET /values?readout=inhibition at 100 %&item= CC(C)[C@H](NC(=O)CC[C@@H](C)[C@H]1CC[C@H]2[C@@H]3[C@H](O)C[C@@H]4C[C@H](O)CC[C@]4(C)[C@H]3C[C@H](O)[C@]12C)C(=O)N[C@@H](Cc1ccccc1)C(=O)N[C@@H](Cc1ccccc1)C(=O)O
55
